Biological target: HiBit-KRAS^G12C (Homo sapiens, UniProt P01116, G12C)
Sequence (P01116 1-186 isoform P01116-2 G12C limits assumed): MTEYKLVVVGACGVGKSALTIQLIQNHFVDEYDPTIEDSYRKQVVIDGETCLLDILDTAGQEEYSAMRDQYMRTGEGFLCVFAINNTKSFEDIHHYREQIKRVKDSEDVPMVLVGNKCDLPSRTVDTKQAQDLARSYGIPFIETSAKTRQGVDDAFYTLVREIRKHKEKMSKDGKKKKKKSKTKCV
Experiment: HiBit degradation assay in SW1573 HiBit-KRas^G12C cells
Format: cell-based
Set-up: expressed in transfected cells; host or cells: SW1573 (clone E6), modified pcDNA3.1 vector, TK promoter
Conditions: read-out: KRas^G12C-HiBiT (SW1573; 0.5% DMSO) IC50***; SW1573 HiBit-KRas^G12C, 0.5% DMSO, 24 hours
Assignment: determine reported DC50 for the given compounds.

Consider the following illustrative entries.
compound: C=C(F)C(=O)N1CCN(c2nc(O[C@H](C)CN3CCC(COc4cc([C@H](C(=O)N5C[C@H](O)C[C@H]5C(=O)N[C@@H](C)c5ccc(-c6scnc6C)cc5)C(C)C)on4)CC3)nc3c(F)c(-c4cc(O)cc5ccccc45)c(Cl)cc23)C[C@@H]1CC#N [Compound 155]
DC50: 100 to 1000 nM
--
compound: C=C(F)C(=O)N1CCN(c2nc(OCCN3CCC(COc4cc([C@H](C(=O)N5C[C@H](O)C[C@H]5C(=O)N[C@@H](C)c5ccc(-c6ccnn6C)cc5)C(C)C)on4)CC3)nc3c(F)c(-c4cc(O)cc5ccccc45)c(Cl)cc23)C[C@@H]1CC#N (atropisomer, axis not shown) [Compound 141]
DC50: < 100 nM
--
compound: C=C(F)C(=O)N1CCN(c2nc(OCCN3CCC(OCCOCC(=O)N[C@H](C(=O)N4C[C@H](O)C[C@H]4C(=O)N[C@@H](C)c4ccc(-c5scnc5C)cc4)C(C)(C)C)CC3)nc3c(F)c(-c4cc(O)cc5ccccc45)c(Cl)cc23)C[C@@H]1CC#N [Compound 170]
DC50: 100 to 1000 nM
--
compound: C=CC(=O)N1CCN(c2nc(OCCN3CCC(F)(COc4cc([C@H](C(=O)N5C[C@H](O)C[C@H]5C(=O)N[C@@H](C)c5ccc(-c6scnc6C)cc5)C(C)C)on4)CC3)nc3c(F)c(-c4cc(O)cc5ccccc45)c(Cl)cc23)C[C@@H]1CC#N [Compound 133]
DC50: < 100 nM
--
compound: C=CC(=O)N1CCN(c2nc(OCCN3CCC(COc4cc([C@@H](C(=O)N5C[C@H](O)C[C@H]5C(=O)N[C@@H](C)c5ccc(C#N)cc5)C(C)C)on4)CC3)nc3c(F)c(-c4cc(O)cc5ccccc45)c(Cl)cc23)C[C@@H]1CC#N [Compound 161]
DC50: < 100 nM

// batch mode: one DC50 value per listed entry
1. C=C(F)C(=O)N1CCN(c2nc(OCCN3CCC(C)(COc4cc([C@H](C(=O)N5C[C@H](O)C[C@H]5C(=O)N[C@@H](C)c5ccc(-c6ccnn6C)cc5)C(C)C)on4)CC3)nc3c(F)c(-c4cc(O)cc5ccccc45)c(Cl)cc23)C[C@@H]1CC#N (atropisomer, axis not shown) [Compound 124]
2. C=C(F)C(=O)N1CCN(c2nc(OCCN3CCC(COc4cc([C@H](C(=O)N5C[C@H](O)C[C@H]5C(=O)N[C@@H](C)c5ccc(-c6scnc6C)cc5)C(C)C)on4)CC3)nc3c(F)c(-c4cc(O)cc5ccccc45)c(Cl)cc23)C[C@@H]1CC#N (atropisomer, axis not shown) [Compound 167]

1: < 100 nM; 2: < 100 nM
